# collection of Kd values tested on RAC-gamma serine/threonine-protein kinase (Homo sapiens)
# Sequence (Q9Y243 whole entry): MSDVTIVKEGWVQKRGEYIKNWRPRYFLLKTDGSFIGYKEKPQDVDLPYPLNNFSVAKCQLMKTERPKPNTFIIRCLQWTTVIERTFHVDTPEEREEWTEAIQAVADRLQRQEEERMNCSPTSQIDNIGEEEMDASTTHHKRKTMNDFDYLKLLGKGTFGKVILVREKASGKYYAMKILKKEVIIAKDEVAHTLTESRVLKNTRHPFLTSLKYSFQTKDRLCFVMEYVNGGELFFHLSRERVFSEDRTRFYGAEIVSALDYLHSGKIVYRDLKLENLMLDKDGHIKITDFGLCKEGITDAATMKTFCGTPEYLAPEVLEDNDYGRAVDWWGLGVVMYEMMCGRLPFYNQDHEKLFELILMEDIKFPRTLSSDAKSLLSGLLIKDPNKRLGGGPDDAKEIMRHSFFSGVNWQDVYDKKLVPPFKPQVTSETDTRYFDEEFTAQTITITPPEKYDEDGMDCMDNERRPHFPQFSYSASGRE
quantity name: Kd

molecule="NC(=O)c1ccc(-c2nc(-c3ccc4c(c3)OCO4)c(-c3ccccn3)[nH]2)cc1 [SB-431542]" test_target="RAC-gamma serine/threonine-protein kinase (Homo sapiens)" quantity_name=Kd experimental_result="> 10 µM"
molecule="COCC(=O)NC/C=C/c1ccc2ncnc(Nc3ccc(Oc4ccc(C)nc4)c(C)c3)c2c1 [CP-724714]" test_target="RAC-gamma serine/threonine-protein kinase (Homo sapiens)" quantity_name=Kd experimental_result="> 10 µM"
molecule="CCOc1cc2ncc(C#N)c(Nc3ccc(F)c(Cl)c3)c2cc1NC(=O)/C=C/CN(C)C [PELITINIB]" test_target="RAC-gamma serine/threonine-protein kinase (Homo sapiens)" quantity_name=Kd experimental_result="> 10 µM"
molecule="Nc1nc(Nc2ccc(S(N)(=O)=O)cc2)nn1C(=O)c1c(F)cccc1F [JNJ-7706621]" test_target="RAC-gamma serine/threonine-protein kinase (Homo sapiens)" quantity_name=Kd experimental_result="> 10 µM"
molecule="Oc1ccc(-c2nc(-c3ccncc3)c(-c3ccc(F)cc3)[nH]2)cc1 [SB-202190]" test_target="RAC-gamma serine/threonine-protein kinase (Homo sapiens)" quantity_name=Kd experimental_result="> 10 µM"
